For each of the compounds below, state its kinase still bound, per cent of control.
tested on: BMX (human), P51813 [V600E]; assay: KINOMEscan competition binding; conditions: compound 10.0 µM
Sequence (P51813 whole entry, looked up, stated change not applied): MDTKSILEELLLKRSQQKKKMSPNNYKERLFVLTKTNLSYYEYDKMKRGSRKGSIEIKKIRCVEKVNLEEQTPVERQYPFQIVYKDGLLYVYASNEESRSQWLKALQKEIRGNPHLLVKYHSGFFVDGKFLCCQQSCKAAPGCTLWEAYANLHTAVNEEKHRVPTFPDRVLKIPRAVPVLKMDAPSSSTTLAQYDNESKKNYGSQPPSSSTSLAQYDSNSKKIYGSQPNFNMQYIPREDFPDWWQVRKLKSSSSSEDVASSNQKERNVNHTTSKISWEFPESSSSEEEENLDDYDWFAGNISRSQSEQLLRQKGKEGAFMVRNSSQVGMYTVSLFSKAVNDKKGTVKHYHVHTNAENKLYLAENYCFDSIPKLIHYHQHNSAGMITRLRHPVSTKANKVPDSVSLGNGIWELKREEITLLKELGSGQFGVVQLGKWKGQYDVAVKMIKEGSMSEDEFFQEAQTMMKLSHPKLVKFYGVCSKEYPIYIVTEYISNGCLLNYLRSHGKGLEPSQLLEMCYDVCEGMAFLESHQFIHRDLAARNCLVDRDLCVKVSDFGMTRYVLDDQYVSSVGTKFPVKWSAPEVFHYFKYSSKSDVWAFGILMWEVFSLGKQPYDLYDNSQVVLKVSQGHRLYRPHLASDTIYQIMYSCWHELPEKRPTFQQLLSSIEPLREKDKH
Use % as the unit, but write only the number.

IN: State the recorded kinase still bound, per cent of control for this entry: `O=C(NOC[C@H](O)CO)c1ccc(F)c(F)c1Nc1ccc(I)cc1F`
OUT: 100

IN: State the recorded kinase still bound, per cent of control for this entry: `N#CCNC(=O)c1ccc(-c2ccnc(Nc3ccc(N4CCOCC4)cc3)n2)cc1`
OUT: 56

IN: State the recorded kinase still bound, per cent of control for this entry: `Cc1ccc2nc(NCCN)c3ncc(C)n3c2c1`
OUT: 60

IN: State the recorded kinase still bound, per cent of control for this entry: `Cc1cc([C@@H](C)Nc2ccccc2C(=O)O)c2nc(N3CCOCC3)cc(=O)n2c1`
OUT: 92

IN: State the recorded kinase still bound, per cent of control for this entry: `Nc1ccc(-c2ccc3ncc4ccc(=O)n(-c5cccc(C(F)(F)F)c5)c4c3c2)cn1`
OUT: 95

IN: State the recorded kinase still bound, per cent of control for this entry: COc1cc(C(=O)NC2CCN(C)CC2)ccc1Nc1ncc2c(n1)N(C1CCCC1)C(C)CC(=O)N2C (centres undefined)
OUT: 100

IN: State the recorded kinase still bound, per cent of control for this entry: `CCOc1cc2ncc(C#N)c(Nc3ccc(OCc4ccccn4)c(Cl)c3)c2cc1NC(=O)/C=C/CN(C)C`
OUT: 100

IN: State the recorded kinase still bound, per cent of control for this entry: CC1=C(C(=O)Nc2cc3cn[nH]c3cc2F)C(c2ccc(C(F)(F)F)cc2)CC(=O)N1 (centres undefined)
OUT: 87

IN: State the recorded kinase still bound, per cent of control for this entry: `CCN(CC)CCCCNc1ncc2cc(-c3cc(OC)cc(OC)c3)c(NC(=O)NC(C)(C)C)nc2n1`
OUT: 100

IN: State the recorded kinase still bound, per cent of control for this entry: `CCN1CCN(C(=O)Cc2ccc(Nc3ncc(F)c(Nc4ccc(C(=O)Nc5ccccc5Cl)cc4)n3)cc2)CC1`
OUT: 43

IN: State the recorded kinase still bound, per cent of control for this entry: `CS(=O)(=O)N1CCN(Cc2cc3nc(-c4cccc5[nH]ncc45)nc(N4CCOCC4)c3s2)CC1`
OUT: 100

IN: State the recorded kinase still bound, per cent of control for this entry: `O=C(Nc1cccc(Nc2ncc(Br)c(NCCc3cnc[nH]3)n2)c1)N1CCCC1`
OUT: 62

IN: State the recorded kinase still bound, per cent of control for this entry: `CCN1CCN(Cc2ccc(NC(=O)c3ccc(C)c(/C=C/c4cnc5[nH]ccc5c4OC)c3)cc2C(F)(F)F)CC1`
OUT: 0.05

IN: State the recorded kinase still bound, per cent of control for this entry: `O=C1NC(=O)/C(=C/c2ccc3nccc(-c4ccncc4)c3c2)S1`
OUT: 41

IN: State the recorded kinase still bound, per cent of control for this entry: `C=CC(=O)Nc1cc(-n2c(=O)ccc3cnc4ccc(-c5cn[nH]c5)cc4c32)ccc1C`
OUT: 91

IN: State the recorded kinase still bound, per cent of control for this entry: `CNC(=O)c1ccc(Nc2cc(Nc3ccccc3S(=O)(=O)C(C)C)c3cc[nH]c3n2)nc1`
OUT: 100

IN: State the recorded kinase still bound, per cent of control for this entry: COc1cc(C)c(Sc2cnc(NC(=O)c3ccc(CNC(C)C(C)C)cc3)s2)cc1C(=O)N1CCN(C(C)=O)CC1 (centres undefined)
OUT: 100

IN: State the recorded kinase still bound, per cent of control for this entry: `CCN(CCO)CCCOc1ccc2c(Nc3cc(CC(=O)Nc4cccc(F)c4)[nH]n3)ncnc2c1`
OUT: 100

IN: State the recorded kinase still bound, per cent of control for this entry: `COc1cc2ncnc(-n3nc(-c4ccccn4)nc3N)c2cc1OC`
OUT: 23
